Record: compiled Ki on Carbonic anhydrase 14 (Homo sapiens, UniProt Q9ULX7) from multiple reports.
Sequence (Q9ULX7 whole entry): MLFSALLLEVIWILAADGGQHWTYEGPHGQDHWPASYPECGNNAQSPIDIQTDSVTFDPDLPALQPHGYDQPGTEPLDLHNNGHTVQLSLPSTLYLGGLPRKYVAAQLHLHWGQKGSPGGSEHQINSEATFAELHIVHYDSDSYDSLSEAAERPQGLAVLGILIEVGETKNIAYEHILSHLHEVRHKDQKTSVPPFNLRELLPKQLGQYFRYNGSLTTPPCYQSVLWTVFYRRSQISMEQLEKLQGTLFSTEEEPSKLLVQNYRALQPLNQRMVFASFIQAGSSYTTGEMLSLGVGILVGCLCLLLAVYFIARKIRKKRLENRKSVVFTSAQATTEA
Exam item: assign 1 to entries whose Ki is below 800 nM and 0 to entries at or above 800 nM. Note that a value of exactly 800 nM receives 0.

Determine whether this compound shows Ki lower than 800 nM (ties excluded): O=C1C=CC[C@H](C[C@@H](O)CCc2cc(Br)c(O)cc2Br)O1
0

# strict comparison: is reported Ki < 800 nM? input = Oc1cc(O)c2c(c1)O[C@H](c1ccc(O)c(O)c1)[C@@H](O)C2
0

Would you kindly verify if Ki of NS(=O)(=O)c1ccc(C(=O)NNC(=S)N[C@@H]2O[C@H](CO)[C@@H](O[C@@H]3O[C@H](CO)[C@H](O)[C@H](O)[C@H]3O)[C@H](O)[C@H]2O)cc1 is strictly less than 800 nM?
1

Given the entry CCCCNS(=O)(=O)NCCCC , would its reported Ki be below 800 nM?
0

# TODO verify Ki < 800 nM strictly for this compound: O=C1C=CC[C@H](C[C@H](F)CCc2ccc(O)cc2)O1
0

Below 800 nM on Ki? Entry NS(=O)(=O)NCc1ccccc1
0

Determine if CCCCC(=O)OC[C@H]1O[C@@H](n2cc(-c3ccc(S(N)(=O)=O)cc3)nn2)[C@H](OC(=O)CCCC)[C@@H](OC(=O)CCCC)[C@@H]1OC(=O)CCCC shows Ki strictly lower than 800 nM.
1

Does the reported Ki of COC(=O)c1ccc(O)cc1 stay below 800 nM?
0

Strictly below 800 nM in Ki? Nc1ccc(S(N)(=O)=O)cc1Cl
1
